Source: patent US20230250191A1

experimental.system: T1, cynomolgus monkey IgE CH3-CH4 (cynomolgus monkey)
T1 construct: domain: CH3-CH4; Custom protein; also called Biotin -cyno IgE CH3-CH4; Biotin-cyno IgE
test.protocol: BLI (Octet), method of Example 2, biotinylated cynomolgus IgE CH3-CH4
measure: koff (s⁻¹)
The reply should contain only the number, in s⁻¹.

The binder listed as AB1904Am11 (antibody, V domains shown, IgG1 format) VH: EVQLVESGGGLVQPGGSLRLSCAVSGYSITSGYSWNWVRQAPGKGLEWVSVITYAGSTNYADSVKGRFTISRDDSKNTFYLQMNSLRAEDTAVYYCARGTHYFGHWHFAVWGQGTLVTVSS VL: DIQLTQSPSSLSASVGDRVTITCRASQSVNDEADSYMNWYQQKPGKAPKLLIYAASYLQSGVPSRFSGSGSGTDFTLTISSLQPEDFATYYCQQSHEDPYTFGQGTKLEIK has a reported koff of 0.000248
